The measurements presented in this section are drawn from patent US20230129258A1.

target: CD137 (Homo sapiens); experiment: CD137 reporter assay (Promega, Jurkat cells) in co-culture with EphA2-expressing tumor cells (A549, PC3, HT29); assay type: cell-based; design: host or cells: Jurkat reporter cells; details: EC50, CD137 reporter coculture assay with PC3 tumor cells
Sequence (Q07011 24-255): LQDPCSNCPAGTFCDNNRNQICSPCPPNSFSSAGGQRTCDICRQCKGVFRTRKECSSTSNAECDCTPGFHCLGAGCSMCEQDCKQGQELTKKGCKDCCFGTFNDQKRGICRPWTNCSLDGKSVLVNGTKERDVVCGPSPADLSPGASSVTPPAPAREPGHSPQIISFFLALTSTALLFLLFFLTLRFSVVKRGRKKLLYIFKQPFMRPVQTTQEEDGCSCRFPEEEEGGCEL
Starred links: 1 amine or outer side, 2 acyl side, 3 side chain; linkers in the order of their positions; H or OH if unused. Positions of bridges follow the written chain, without caps; N, C: chain ends. Non-standard residues stand in square brackets, D forms with d. Chains are numbered I, II in the order given. X1 = O=C(CCOCCOCCOCCN(CCOCCOCCOCCn1cc(CCC(=O)[*:2])nn1)CCOCCOCCOCCn1cc(CCC(=O)[*:3])nn1)[*:1]; X2 = O=C(CCSCCC(=O)[*:1])N1CN(C(=O)CC[*:2])CN(C(=O)CC[*:3])C1; TATA = O=C(CC[*:1])N1CN(C(=O)CC[*:2])CN(C(=O)CC[*:3])C1; 1Nal = N[C@@H](Cc1cccc2ccccc12)C(=O)O; d1Nal = N[C@H](Cc1cccc2ccccc12)C(=O)O; Hyp = O=C(O)[C@@H]1C[C@@H](O)CN1; hArg = N=C(N)NCCCC[C@H](N)C(=O)O; tBuAla = CC(C)(C)C[C@H](N)C(=O)O; Aad = N[C@@H](CCCC(=O)O)C(=O)O; Nle = CCCC[C@H](N)C(=O)O; Mpa = O=C(O)CCS
Some substances, each annotated with its measured EC50.
Give your result in nM as a bare value.

| SUBSTANCE | EC50 (nM) |
| --- | --- |
| I: A[hArg]DC[Hyp]LVNPLCLHP[d1Nal]W[hArg]C-NH2 / II: Ac-C[tBuAla]PE[dK]PYCFADPY[Nle]CA-NH2 / III: Ac-C[tBuAla]PE[dK]PYCFADPY[Nle]CA-NH2 (linker I:4-I:11-I:18, II:1-II:8-II:15, III:1-III:8-III:15 via TATA; linker I:N-II:5-III:5 via X1) [BCY13270] | 0.1 |
| I: A[hArg]DC[Hyp]LVNPLCLHP[dD]W[hArg]C-NH2 / II: [Mpa][tBuAla]EE[dK]PYCFADPY[Nle]C-NH2 / III: [tBuAla]EE[dK]PYCFADPY[Nle]C-NH2 (linker I:4-I:11-I:18, II:1-II:8-II:15 via TATA; linker I:N-II:5-III:4 via X1; linker III:N-III:7-III:14 via X2) [BCY13139] | 0.16 |
| I: A[hArg]DC[Hyp]LVNPLCL[Nle]P[dD]W[hArg]C-NH2 / II: Ac-C[tBuAla]PE[dK]PYCFADPY[Nle]CA-NH2 / III: Ac-C[tBuAla]PE[dK]PYCFADPY[Nle]CA-NH2 (linker I:4-I:11-I:18, II:1-II:8-II:15, III:1-III:8-III:15 via TATA; linker I:N-II:5-III:5 via X1) [BCY13289] | 0.08 |

EC50 in this record for I: A[hArg]DC[Hyp]LVNPLCLEP[dD]WTC-NH2 / II: [Mpa][tBuAla]PE[dK]PYCFADPY[Nle]C-NH2 / III: [tBuAla]PE[dK]PYCFADPY[Nle]C-NH2 (linker I:4-I:11-I:18, II:1-II:8-II:15 via TATA; linker I:N-II:5-III:4 via X1; linker III:N-III:7-III:14 via X2) [BCY13138] : 0.17

EC50 in this record for I: A[hArg]DC[Hyp]LVNPLCLEP[dD]WTC-NH2 / II: [Mpa][tBuAla]EE[dK]PYCFADPY[Nle]C-NH2 / III: [tBuAla]EE[dK]PYCFADPY[Nle]C-NH2 (linker I:4-I:11-I:18, II:1-II:8-II:15 via TATA; linker I:N-II:5-III:4 via X1; linker III:N-III:7-III:14 via X2) [BCY13140] : 0.12

EC50 in this record for I: Ac-A[hArg]DC[Hyp]KVNPLCLHP[dD]W[hArg]C-NH2 / II: Ac-C[tBuAla]PE[dK]PYCFADPY[Nle]CA-NH2 / III: Ac-C[tBuAla]PE[dK]PYCFADPY[Nle]CA-NH2 (linker I:4-I:11-I:18, II:1-II:8-II:15, III:1-III:8-III:15 via TATA; linker I:6-II:5-III:5 via X1) [BCY12975] : 0.16

EC50 in this record for I: A[hArg]DC[Hyp]LVNPLCL[1Nal]P[dD]W[hArg]C-NH2 / II: Ac-C[tBuAla]PE[dK]PYCFADPY[Nle]CA-NH2 / III: Ac-C[tBuAla]PE[dK]PYCFADPY[Nle]CA-NH2 (linker I:4-I:11-I:18, II:1-II:8-II:15, III:1-III:8-III:15 via TATA; linker I:N-II:5-III:5 via X1) [BCY13271] : 0.09

EC50 in this record for I: A[hArg]DC[Hyp]LVNPLCL[Aad]P[dD]W[hArg]C-NH2 / II: Ac-C[tBuAla]PE[dK]PYCFADPY[Nle]CA-NH2 / III: Ac-C[tBuAla]PE[dK]PYCFADPY[Nle]CA-NH2 (linker I:4-I:11-I:18, II:1-II:8-II:15, III:1-III:8-III:15 via TATA; linker I:N-II:5-III:5 via X1) [BCY13286] : 0.11
